Examples of molecules with documented GFP response, % of DMSO follow.
test-details: modulators of CIT2-GFP expression in yeast, confirmation, S. cerevisiae, GFP fusion, cherry picks, mother/daughter gates (AID 2274)
measurement-setup: S. cerevisiae CIT2-GFP strain, flow cytometry, 3 h; measured here: mother cell gate; at 10 µM; stronger effect = higher value

molecule	GFP response, % of DMSO (%)
CC(=O)c1ccc(Sc2ccccn2)c([N+](=O)[O-])c1	99.7
CCOc1ccccc1N1C(=O)CC(Sc2ncccc2C(=O)O)C1=O (stereo not drawn)	102
O=C(Cn1cc(/C=C\[N+](=O)[O-])c2ccccc21)Nc1ccccc1	99.7
O=C(c1ccccc1F)N1CCN(c2ccccc2)CC1	98.5
COc1cccc2c1Oc1ncccc1N(C(=O)CCC(=O)NCc1ccccc1F)C2	147
COc1ccc(-c2[nH]ncc2-c2ccc(Cl)cc2)c(O)c1	105
O=C(c1ccc(Cl)cc1)N1CCN(c2cccc3[nH]ccc23)CC1	95
COc1cc(C(O)P(=O)(OCC(C)C)OCC(C)C)cc(OC)c1OC (stereo not drawn)	99.1
Oc1ccc(-c2csc(-c3ccccc3)n2)cc1O	90.8
N#C/C(=C\c1c(N2CCC(C(N)=O)CC2)nc2ccccn2c1=O)C(=O)NCc1ccco1	101
CC(=O)Nc1cccc(Oc2ccc(-c3noc(C)n3)cc2)c1	96.8
CCC(=O)Oc1oc(-c2ccccc2)nc1C=Nc1ccc(C)cc1	109
CC(C)(C)C(=O)NCC12C=CC(O1)C1C(=O)N(c3ccccc3)C(=O)C12 (stereo not drawn)	105
CC(C)Cn1c(=O)c(C(=O)Nc2ccncc2)c(O)c2ccccc21	90.2
O=C1c2ccccc2C2=Nc3ccccc3SC(c3cccc(F)c3)C12 (stereo not drawn)	106
Cc1ccc(NC(=O)COc2ccc(Br)cc2C)cc1	95.6
O=C1CC(SCc2nc3ccccc3[nH]2)C(=O)N1c1ccc(F)cc1 (stereo not drawn)	107
C[n+]1ccc(/C=C/c2c[nH]c3ccc(F)cc23)cc1	112
Cc1cc(N2CCCCC2)n2nc(C)c(-c3ccccc3)c2n1	97.7
O=C(OCC(=O)N1CCN(C(=O)c2ccco2)CC1)c1cc(-c2ccc(Cl)c(Cl)c2Cl)nc2ccccc12	107
Cc1ccsc1/C=N/Nc1ncc(Cl)cc1Cl	84.6
COC(=O)c1ccc(/C=N\NC(=O)c2ccc(C)cc2Cl)cc1	99.7
O=C(OCC(=O)N1CCN(C(=O)c2ccco2)CC1)c1cc(-c2ccc(F)cc2)nc2ccccc12	136

---

Examples of compounds with documented differentiation response follow.
test-details: promoters of myeloid differentiation in arrested cells, primary screen, cell-based, GFP/MAC1 double positive, flow cytometry, validation set (AID 588685);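 note: compound exposure lasts four days before antibody staining and flow analysis; 0% = DMSO wells and 100% = 5 µM fulvestrant positive control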
measurement-setup: ER-HoxA9 marrow cells, stronger effect = higher value, normalized: vehicle 0, fulvestrant 100
endpoint: differentiation response (%)

compound	reported-result
COc1cc2cc(C(=O)O)n(C)c2c(OC)c1OC	-3.43
O=C(OCCN1CCCC1)C1(c2ccccc2)CCCC1	-7.2
Cc1cccc(N2C(=O)C3C(c4ccccc4)OC4(C(=O)c5ccccc5C4=O)C3C2=O)c1 (configuration not stated)	-12
COc1cccc(C2CCCN2Cc2nc(CCC(C)C)no2)c1 (configuration not stated)	4.64
COc1ccc2[nH]cc(CCNC(=O)C3CCCNC3=O)c2c1 (configuration not stated)	6.26
O=C(Cc1ccc(Br)cc1)c1ccc(O)cc1O	12.3
O=c1c2ccccc2nc2n1-c1ccccc1CCC2	1.22
CC(C)NNC(=O)c1ccncc1	-26
O=c1oc2c(CN3CCN(CCO)CC3)c(O)ccc2cc1-c1ccccn1	10.6
COc1cccc(N2C(=O)[C@H]3C(C(=O)c4cnccn4)=NN[C@H]3C2=O)c1	-4.91
COc1ccc(OC)c(-n2c(Cn3c(-c4ccccn4)nc4ccccc43)n[nH]c2=S)c1	-9.89
C(=C/c1nccc2c1[nH]c1ccccc12)/c1ccc2c(c1)OCO2	-18
CNC[C@H](O)c1cccc(O)c1	7.13
O=C(CCCCCCCC(=O)c1ccccc1)c1ccccc1	5.6
O=C1CCCN1CCCn1cnc2c([nH]c3ccc(F)cc32)c1=O	-27.6
C[C@@H]1C[C@H]2[C@@H]3C[C@H](F)C4=CC(=O)C=C[C@]4(C)[C@@]3(F)[C@@H](O)C[C@]2(C)[C@@]1(O)C(=O)CO	-1.82
CCN1CCN(C(=O)N[C@@H](C(=O)N[C@@H]2C(=O)N3[C@@H]2SC(C)(C)[C@@H]3C(=O)O)c2ccccc2)C(=O)C1=O	3.28
CC(=O)O[C@]1(C(C)=O)CC[C@H]2[C@@H]3C=C(Cl)C4=CC(=O)CC[C@]4(C)[C@H]3CC[C@@]21C	-9.89
COc1ccc(Cl)cc1C(=O)NCCc1ccc(S(=O)(=O)NC(=O)NC2CCCCC2)cc1	-10.4
Cc1ccc(NCCC(=O)c2ccccc2)cc1Cl	-0.82
CCN(CC)CCOC(=O)C1(C2CCCCC2)CCCCC1	-27.6
COc1ccccc1C(=O)c1cc2ccc(O)cc2oc1=O	-14.7

---

test-details: modulators of CIT2-GFP expression in yeast, confirmation, S. cerevisiae, GFP fusion, cherry picks, mother/daughter gates (AID 2274)
measurement-setup: S. cerevisiae CIT2-GFP strain, flow cytometry, 3 h; at 10 µM; stronger effect = higher value
Examples of molecules with documented GFP response, % of DMSO follow.
endpoint: GFP response, % of DMSO (%)

given-smiles	endpoint	reported-result
O=[N+]([O-])c1ccccc1OCCOc1ccccc1[N+](=O)[O-]	GFP response, % of DMSO	105
O=C(Oc1oc(-c2ccco2)nc1C=Nc1ccc(Cl)cc1)c1ccco1	GFP response, % of DMSO	89.7
CCOC(=O)CS(=O)(=O)c1nc(-c2ccccc2)cc(C(F)(F)F)n1	GFP response, % of DMSO	110
N#C/C(=C\c1c(N(Cc2ccccc2)Cc2ccccc2)nc2ccccn2c1=O)C(N)=O	GFP response, % of DMSO	106
O=C(Nc1nc(-c2ccc(Cl)cc2)cs1)c1cccnc1	GFP response, % of DMSO	95.9

---

measurement-target: ATP-binding cassette sub-family B member 6 (Homo sapiens) (UniProt Q9NP58)
Sequence (Q9NP58 whole entry, looked up): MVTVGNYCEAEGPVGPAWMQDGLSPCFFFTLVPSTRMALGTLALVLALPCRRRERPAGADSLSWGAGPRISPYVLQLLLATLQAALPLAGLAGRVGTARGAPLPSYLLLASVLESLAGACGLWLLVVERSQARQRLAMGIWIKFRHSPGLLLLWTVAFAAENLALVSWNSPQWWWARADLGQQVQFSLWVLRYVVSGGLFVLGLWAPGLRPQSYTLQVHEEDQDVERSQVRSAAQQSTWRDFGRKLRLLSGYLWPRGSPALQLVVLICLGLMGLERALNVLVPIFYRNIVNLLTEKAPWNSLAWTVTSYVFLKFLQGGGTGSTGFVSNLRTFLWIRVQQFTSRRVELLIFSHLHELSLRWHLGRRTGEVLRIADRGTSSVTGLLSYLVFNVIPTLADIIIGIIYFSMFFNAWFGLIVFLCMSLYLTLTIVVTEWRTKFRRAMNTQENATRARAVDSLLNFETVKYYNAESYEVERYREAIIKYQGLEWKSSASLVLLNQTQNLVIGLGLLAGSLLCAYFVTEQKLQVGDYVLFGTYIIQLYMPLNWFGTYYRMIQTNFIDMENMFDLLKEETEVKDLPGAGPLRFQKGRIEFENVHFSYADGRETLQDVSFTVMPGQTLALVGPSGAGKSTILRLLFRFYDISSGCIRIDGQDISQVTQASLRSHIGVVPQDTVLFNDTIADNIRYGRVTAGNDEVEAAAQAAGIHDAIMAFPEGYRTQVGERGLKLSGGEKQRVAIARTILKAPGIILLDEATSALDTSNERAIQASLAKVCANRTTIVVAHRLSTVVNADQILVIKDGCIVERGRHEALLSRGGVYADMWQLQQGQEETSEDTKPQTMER
test-details: ABCB6 transporter inhibitors, pilot screen, K562-ABCB6 cells, flow cytometry, validation set (AID 588550);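 note: 0% = DMSO wells and 100% = benzethonium chloride 70 µM positive control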
measurement-setup: K562-ABCB6 porphyrin accumulation, 1 h, at 10 µM, stronger effect = higher value
Examples of molecules with documented inhibition follow.
endpoint: inhibition (%)

molecule	measurement-target	reported-result
Cc1ccc(S(=O)(=O)Nc2ccc(S(=O)(=O)Nc3cc(C)nc(C)n3)cc2)cc1	ATP-binding cassette sub-family B member 6 (Homo sapiens) (UniProt Q9NP58)	6
O=c1nc2cccc3c2=c(/c1=C(\O)c1ccccc1)c1ccccc1c3=O	ATP-binding cassette sub-family B member 6 (Homo sapiens) (UniProt Q9NP58)	9
CC1(C)c2ccccc2N2CC(=O)N(CC(N)=O)C21C (configuration not stated)	ATP-binding cassette sub-family B member 6 (Homo sapiens) (UniProt Q9NP58)	11
COc1ccc2[nH]c3c(c2c1)CCn1c-3nc2ccccc2c1=O	ATP-binding cassette sub-family B member 6 (Homo sapiens) (UniProt Q9NP58)	7
Cn1c(=O)[nH]c(=O)c2c1ncn2CCN1CCOCC1	ATP-binding cassette sub-family B member 6 (Homo sapiens) (UniProt Q9NP58)	16
COC(=O)c1[nH]c2ccccc2c1NC(=O)CN1CCN(C/C=C/c2ccccc2)CC1	ATP-binding cassette sub-family B member 6 (Homo sapiens) (UniProt Q9NP58)	8
CC(=O)/C=C/c1ccc(C)o1	ATP-binding cassette sub-family B member 6 (Homo sapiens) (UniProt Q9NP58)	3
COc1ccc(CCn2c(C)cc3c(c2=O)C(c2ccncc2)C(C#N)=C(N)O3)cc1OC (configuration not stated)	ATP-binding cassette sub-family B member 6 (Homo sapiens) (UniProt Q9NP58)	6
O=C(O)CCCCCCCC(=O)O	ATP-binding cassette sub-family B member 6 (Homo sapiens) (UniProt Q9NP58)	-18
Cc1cc(C(=O)NC(CC(C)C)C(=O)O)cc(C)c1[N+](=O)[O-] (configuration not stated)	ATP-binding cassette sub-family B member 6 (Homo sapiens) (UniProt Q9NP58)	17
CN1CCN(CCCN2c3ccccc3Sc3ccc(C(F)(F)F)cc32)CC1	ATP-binding cassette sub-family B member 6 (Homo sapiens) (UniProt Q9NP58)	8
NC12CC3CC(C1)CC(O)(C3)C2	ATP-binding cassette sub-family B member 6 (Homo sapiens) (UniProt Q9NP58)	11

---

Examples of compounds with documented aptamer binding inhibition follow.
measurement-target: Beta-adrenergic receptor kinase 1 (Homo sapiens)
test-details: GRK2 binders displacing RNA aptamer, biochemical, validation, human GRK2, bead flow cytometry (AID 488806)
measurement-setup: bead-bound GRK2, FAM-aptamer displacement, at 10 µM, stronger effect = higher value

compound	aptamer binding inhibition, %
CC(=O)c1cn(C)c(=O)[nH]c1=O	3
COc1ccc(C(=O)[C@H]2[C@H]3C(=O)N(c4ccccc4)C(=O)[C@H]3C3C=CC=NN32)cc1 (stereo not given in full)	3
CC(=O)OC[C@H]1O[C@@H](n2ncc(=O)[nH]c2=O)[C@H](OC(C)=O)[C@@H]1OC(C)=O	6
CC1COc2c(N3CCN(C)CC3)c(F)cc3c(=O)c(C(=O)O)cn1c23 (stereo not given)	2
CC(C)Oc1ccc(C(CC(=O)O)c2ccc(F)cc2)cc1 (stereo not given)	5
